- study-target: KRAS G13D (Homo sapiens, UniProt P01116+P62937, G13D)
- Sequence (P01116 1-169 isoform P01116-2 G13D limits assumed): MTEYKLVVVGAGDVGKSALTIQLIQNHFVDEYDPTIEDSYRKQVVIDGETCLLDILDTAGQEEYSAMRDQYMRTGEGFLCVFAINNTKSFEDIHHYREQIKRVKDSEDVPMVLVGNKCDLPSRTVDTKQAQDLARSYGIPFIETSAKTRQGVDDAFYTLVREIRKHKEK
- Sequence (P62937 whole entry): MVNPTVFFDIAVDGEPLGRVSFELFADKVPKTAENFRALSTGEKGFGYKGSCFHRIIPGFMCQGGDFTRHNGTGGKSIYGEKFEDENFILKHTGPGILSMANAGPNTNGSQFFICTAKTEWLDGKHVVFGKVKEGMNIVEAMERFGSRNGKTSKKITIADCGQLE
- assay-details: Disruption of BRAF RBD interaction with Ras (FRET / MOA assay, with Cyclophilin A)
- Assay type: biochemical
- measurement-conditions: KRAS G13D; read-out: KRAS G13D FRET data IC50
observable: IC50

Consider the reported IC50 for these compounds:
CCn1c(-c2cccnc2[C@H](C)OC)c2c3cc(ccc31)-c1cc(O)cc(c1)C[C@H](NC(=O)[C@H](C(C)C)N(C)C(=O)[C@H]1CC[C@@H](CN(C)C)O1)C(=O)N1CCC[C@H](N1)C(=O)OCC(C)(C)C2 [Example A397] :: 0.01 to 0.1 µM
CCn1c(-c2cccnc2[C@H](C)OC)c2c3cc(ccc31)-c1cc(O)cc(c1)C[C@H](NC(=O)[C@H](C(C)C)N(C)C(=O)[C@@H]1CCNC1)C(=O)N1CCC[C@H](N1)C(=O)OCC(C)(C)C2 [Example A129] :: 0.01 to 0.1 µM
CCn1c(-c2cc(N3CCN(C)CC3)cnc2[C@H](C)OC)c2c3cc(ccc31)-c1csc(n1)C[C@H](NC(=O)[C@H](C(C)C)N(C)C(=O)N1C[C@@H](C)N(C)C[C@H]1C)C(=O)N1CCC[C@H](N1)C(=O)OCC(C)(C)C2 (atropisomer, axis not shown) [Example A476] :: 0.1 to 1 µM

IN: So what's the measured IC50 for this one? CCn1c(-c2cccnc2[C@H](C)OC)c2c3cc(ccc31)-c1csc(n1)C[C@H](NC(=O)[C@H](C(C)C)N(C)C(=O)N1CC([C@@H](C)CO)C1)C(=O)N1CCC[C@H](N1)C(=O)OCC(C)(C)C2 (single isomer, unassigned) [Example A487]
OUT: 0.1 to 1 µM

----------
- study-target: KRAS G12D (Homo sapiens, UniProt P01116+P62937, G12D)
- Sequence (P01116 1-169 isoform P01116-2 G12D limits assumed): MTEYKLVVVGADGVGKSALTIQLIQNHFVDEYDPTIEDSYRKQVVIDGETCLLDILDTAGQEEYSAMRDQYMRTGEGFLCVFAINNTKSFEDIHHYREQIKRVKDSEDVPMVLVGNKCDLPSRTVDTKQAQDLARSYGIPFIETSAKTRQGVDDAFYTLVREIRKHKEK
- Sequence (P62937 whole entry): as the sequence (P62937 whole entry) above
- assay-details: Disruption of BRAF RBD interaction with Ras (FRET / MOA assay, with Cyclophilin A)
- Format: biochemical
- measurement-conditions: read-out: KRAS G12D FRET data, IC50
pIC50: −log10 of the molar value.
Here, each record is paired with measured pIC50 data.

CCn1c(-c2cccnc2[C@H](C)OC)c2c3cc(ccc31)-c1csc(n1)C[C@H](NC(=O)[C@H](C(C)C)N(C)C(=O)[C@H]1CCN(C(=O)OC)C1)C(=O)N1CCC[C@H](N1)C(=O)OCC(C)(C)C2 :: < 5.00
C=CC(=O)N1CCOC2(CCN(C(=O)N(C)[C@H](C(=O)N[C@H]3Cc4cc(CF)cc(c4)-c4ccc5c(c4)c(c(-c4cccnc4[C@H](C)OC)n5CC(F)(F)F)CC(C)(C)COC(=O)C4CCCN(N4)C3=O)C(C)C)CC2)C1 (stereo partly shown) :: 6.00 to 7.00

IN: Enter reported pIC50 observed with KRAS G12D (Homo sapiens, UniProt P01116+P62937, G12D) for CCn1c(-c2cccnc2[C@H](C)OC)c2c3cc(ccc31)-c1csc(n1)C[C@H](NC(=O)[C@@H](OC(=O)N1CC(OC)C1)C(C)C)C(=O)N1CCC[C@H](N1)C(=O)OCC(C)(C)C2
OUT: 5.00 to 6.00

IN: Enter reported pIC50 observed with KRAS G12D (Homo sapiens, UniProt P01116+P62937, G12D) for C=CC(=O)N1CC[C@H](C(=O)N(C)[C@H](C(=O)N[C@H]2Cc3cc(O)cc(c3)-c3ccc4c(c3)c(c(-c3ccccc3CN(C)C)n4CC)CC(C)(C)COC(=O)[C@@H]3CCCN(N3)C2=O)C(C)C)C1
OUT: 5.00 to 6.00

----------
- study-target: KRAS Q61H (Homo sapiens, UniProt P01116+P62937, Q61H)
- Sequence (P01116 1-169 isoform P01116-2 Q61H limits assumed): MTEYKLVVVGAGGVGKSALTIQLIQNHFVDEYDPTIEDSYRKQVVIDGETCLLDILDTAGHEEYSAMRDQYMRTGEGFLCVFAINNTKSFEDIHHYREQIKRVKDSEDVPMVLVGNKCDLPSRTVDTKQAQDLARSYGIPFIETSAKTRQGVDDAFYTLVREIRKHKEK
- Sequence (P62937 whole entry): as the sequence (P62937 whole entry) above
- assay-details: Disruption of BRAF RBD interaction with Ras (FRET / MOA assay, with Cyclophilin A)
- Type: biochemical
- measurement-conditions: KRAS Q61H; read-out: KRAS Q61H FRET data IC50
- Source text: Disruption of B-Raf Ras-Binding Domain (BRAF^RBD) Interaction with K-Ras by Compounds of the Invention (Also Called a FRET Assay or an MOA Assay) Note—The following protocol describes a procedure for monitoring disruption of K-Ras G12C (GMP-PNP) binding to BRAF^RBD by a compound of the invention. This protocol may also be executed substituting other Ras proteins or nucleotides. […]
pIC50: −log10 of the molar value.
Here, each record is paired with measured pIC50 data.

Consider the reported pIC50 for these compounds:
CCn1c(-c2cccnc2[C@H](C)OC)c2c3cc(ccc31)-c1csc(n1)C[C@H](NC(=O)[C@H](C(C)C)N(C)C(=O)N1CC(N(C)C3CC3)C1)C(=O)N1CCC[C@H](N1)C(=O)OCC(C)(C)C2 (atropisomer, axis not shown) [Example A285] :: 7.00 to 8.00
CCn1c(-c2cccnc2[C@H](C)OC)c2c3cc(ccc31)-c1csc(n1)C[C@H](NC(=O)[C@H](C(C)C)N(C)C(=O)O[C@H]1CCOC1)C(=O)N1CCC[C@H](N1)C(=O)OCC(C)(C)C2 [Example A210] :: 6.00 to 7.00
CCn1c(-c2cccnc2[C@H](C)OC)c2c3cc(ccc31)-c1csc(n1)C[C@H](NC(=O)[C@H](C(C)C)N(C)C(=O)N1CCC3(CC1)CN(C)CCO3)C(=O)N1CCC[C@H](N1)C(=O)OCC(C)(C)C2 [Example A433] :: 6.00 to 7.00

IN: So what's the measured pIC50 for this one? C=CS(=O)(=O)N1CC[C@H](C(=O)N(C)[C@H](C(=O)N[C@H]2Cc3cccc(c3)-c3ccc4c(c3)c(c(-c3cncnc3)n4CC)CC(C)(C)COC(=O)[C@@H]3CCCN(N3)C2=O)C(C)C)C1 [Example A171]
OUT: < 5.00

IN: So what's the measured pIC50 for this one? CCn1c(-c2cccnc2[C@H](C)OC)c2c3cc(ccc31)-c1cc(O)cc(c1)C[C@H](NC(=O)[C@H](C(C)C)N(C)C(=O)[C@H]1C[C@@H]1C)C(=O)N1CCC[C@H](N1)C(=O)OCC(C)(C)C2 [Example A287]
OUT: 7.00 to 8.00

IN: So what's the measured pIC50 for this one? CCn1c(-c2cccnc2[C@H](C)OC)c2c3cc(ccc31)-c1csc(n1)C[C@H](NC(=O)[C@H](C(C)C)N(C)C(=O)N1CCC13CCOCC3)C(=O)N1CCC[C@H](N1)C(=O)OCC(C)(C)C2 (atropisomer, axis not shown) [Example A601]
OUT: 7.00 to 8.00

IN: So what's the measured pIC50 for this one? CCn1c(-c2cccnc2[C@H](C)OC)c2c3cc(ccc31)-c1csc(n1)C[C@H](NC(=O)[C@H](C(C)C)N(C)C(=O)N(C)C)C(=O)N1CCC[C@H](N1)C(=O)OCC(C)(C)C2 (racemic) [Example A136]
OUT: 7.00 to 8.00

IN: So what's the measured pIC50 for this one? CCn1c(-c2cccnc2[C@H](C)OC)c2c3cc(ccc31)-c1csc(n1)C[C@H](NC(=O)C1CCC1)C(=O)N1CCC[C@H](N1)C(=O)OCC(C)(C)C2 [Example A369]
OUT: 6.00 to 7.00

IN: So what's the measured pIC50 for this one? CCn1c(-c2cccnc2[C@H](C)OC)c2c3cc(ccc31)-c1csc(n1)C[C@H](NC(=O)[C@H](C(C)C)N(C)C(=O)N1CC[C@]13CCCN(C)C3)C(=O)N1CCC[C@H](N1)C(=O)OCC(C)(C)C2 [Example A442]
OUT: 6.00 to 7.00

----------
- study-target: NRAS G12C (Homo sapiens, UniProt P01111+P62937, G12C)
- Sequence (P01111 whole entry G12C): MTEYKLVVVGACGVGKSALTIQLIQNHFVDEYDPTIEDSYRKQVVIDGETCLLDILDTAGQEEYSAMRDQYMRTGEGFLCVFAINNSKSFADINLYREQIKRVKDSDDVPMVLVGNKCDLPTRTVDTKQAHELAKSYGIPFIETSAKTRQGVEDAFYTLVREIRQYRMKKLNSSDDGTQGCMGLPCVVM
- Sequence (P62937 whole entry): as the sequence (P62937 whole entry) above
- assay-details: Disruption of BRAF RBD interaction with Ras (FRET / MOA assay, with Cyclophilin A)
- Format: biochemical
- measurement-conditions: NRAS G12C; read-out: NRAS G12C FRET data IC50
- Excerpt: This protocol may also be executed substituting other Ras proteins or nucleotides. The purpose of this biochemical assay was to measure the ability of test compounds to facilitate ternary complex formation between a nucleotide-loaded K-Ras isoform and Cyclophilin A; the resulting ternary complex disrupts binding to a BRAF^RBD construct, inhibiting K-Ras signaling through a RAF effector. Data is reported as IC50 values. […]
pIC50: −log10 of the molar value.
Here, each record is paired with measured pIC50 data.

Consider the reported pIC50 for these compounds:
CCn1c(-c2cccnc2[C@H](C)OC)c2c3cc(ccc31)-c1csc(n1)C[C@H](NC(=O)[C@H](C(C)C)N(C)C(=O)N1CCC13CCOCC3)C(=O)N1CCC[C@H](N1)C(=O)OCC(C)(C)C2 (atropisomer, axis not shown) :: 7.00 to 8.00
C=CC(=O)N1CCOC2(CCN(C(=O)N(C)[C@H](C(=O)N[C@H]3CN4CCC=C(C4)c4ccc5c(c4)c(c(-c4cccnc4[C@H](C)OC)n5CC)CC(C)(C)COC(=O)[C@@H]4CCCN(N4)C3=O)C(C)C)CC2)C1 :: 6.00 to 7.00
CCn1c(-c2cccnc2[C@H](C)OC)c2c3cc(ccc31)-c1csc(n1)C[C@H](NC(=O)[C@H](C(C)C)N(C)C(=O)N1CC(N(C)C(=O)C#CC(C)(C)N3CCC3)C1)C(=O)N1CCC[C@H](N1)C(=O)OCC(C)(C)C2 :: 7.00 to 8.00

Here is the next item to consider.
IN: So what's the measured pIC50 for this one? CCn1c(-c2cccnc2[C@H](C)OC)c2c3cc(ccc31)-c1cc(O)cc(c1)C[C@H](NC(=O)[C@H](C(C)C)N(C)C(=O)[C@H]1CCN(CCO)C1)C(=O)N1CCC[C@H](N1)C(=O)OCC(C)(C)C2
OUT: 6.00 to 7.00
